Values were extracted from ChEMBL document CHEMBL4513216.

- experiment: Toxicity liver stage against HepG2, at 10uM
- Format: cell-based
- Set-up: test concentration 10 uM, cell line HepG2-A16-CD81EGFP
- condition info: human, HepG2-A16-CD81EGFP cells; read-out: INHIBITION
I'd be grateful if you could share measured cytotoxicity at 10 µM for these entries.
One number for each entry, in %.

Recorded results for 5 compounds are shown here.
N#Cc1ccc(CN2CCN(Cc3ccncc3Cl)CC2=O)cc1	6.43
O=C(c1ccc2[nH]ccc2c1)N1CC[C@@H]2CN(CC3CC3)CCO[C@@H]2C1	-108
CCCNC(=O)c1ccc2c(OC)n(C)nc2c1	1.56
COCCC(=O)N[C@H]1CN(c2nc(C)c3c(n2)CCCC3)C[C@@H]1C1CC1	-12.8
Cn1ccnc1C1CCN(C(=O)COCC(F)(F)C(F)F)CC1	-45.2

Take each entry in turn and give its cytotoxicity at 10 µM.
1. CCC(CO)N(C/C(C)=C/c1ccco1)Cc1ccccn1 (stereo unspecified)
2. COCCN1CCN(CC(=O)N(C)Cc2ccsc2)CC1
3. COc1cccc(COCC(=O)N2CCCC(c3ccn[nH]3)C2)c1 (stereo unspecified)
4. CSCCCNC(=O)C(c1cccc(F)c1)N(C)C (stereo unspecified)
5. CC(C)(C)OC(=O)N1CCCCC1C(=O)NCc1cc[nH]n1 (stereo unspecified)
6. CC(C)=CCN1CC2(CCN(Cc3cccc(C#N)c3)CC2)CC1=O

1. -2.46
2. -153
3. -20.9
4. 0.28
5. 1.41
6. -4.39
